Listed below: IC50 values for each entry.
System: VCAP
Assay: Proliferation of VCAP prostate cancer cells (CCK-8)
Assay type: cell-based
Conditions: Homo sapiens; prostate cancer cell line VCAP; read-out: IC50 against VCAP

{"columns": ["structureNotation", "testedSystem", "IC50"],
 "data": [
  ["CCO[C@H]1CC[C@H](n2c([C@@H]3CCOC(=O)N3c3ccc(Cl)c(F)c3)nc3cc(-c4c(C)noc4C)ccc32)CC1", "VCAP", "< 500 nM"],
  ["CCO[C@H]1CC[C@H](n2c([C@@H]3CCOC(=O)N3c3ccc(F)c(F)c3)nc3cc(-c4c(C)noc4C)ccc32)CC1", "VCAP", "< 500 nM"],
  ["CO[C@H]1CC[C@H](n2c([C@@H]3CCOC(=O)N3c3ccc(Cl)c(F)c3)nc3cc(-c4c(C)noc4C)ccc32)CC1", "VCAP", "< 500 nM"]
]}
